Each record here notes measured Emax.
Target: human urotensin II receptor (Homo sapiens, UniProt Q9UKP6)
Construct: expressed in transfected cells; host or cells: NIH3T3 cells
Sequence (Q9UKP6 whole entry): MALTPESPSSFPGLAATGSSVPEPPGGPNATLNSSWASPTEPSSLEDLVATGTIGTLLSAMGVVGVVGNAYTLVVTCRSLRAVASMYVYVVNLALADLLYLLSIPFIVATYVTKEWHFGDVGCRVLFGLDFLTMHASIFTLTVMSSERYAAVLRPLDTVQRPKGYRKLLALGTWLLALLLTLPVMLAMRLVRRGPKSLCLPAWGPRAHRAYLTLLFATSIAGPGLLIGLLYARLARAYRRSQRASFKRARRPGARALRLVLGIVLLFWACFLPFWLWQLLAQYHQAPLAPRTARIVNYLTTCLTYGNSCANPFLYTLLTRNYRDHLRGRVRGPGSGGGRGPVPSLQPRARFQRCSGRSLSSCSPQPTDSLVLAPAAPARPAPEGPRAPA
Test: Receptor Selection and Amplification (R-SAT) functional assay, NIH3T3 cells transfected with human urotensin II receptor and β-galactosidase marker
Assay type: cell-based
Conditions: NIH3T3, Table 3, percent activation normalized to the reference ligand assigned 100%, read-out: Efficacy
Where a name gives a salt, the structure may show the parent alone.
Write the answer as a number in %, unit excluded.

1) COc1cccc(NC(=O)OC(CCN(C)C)c2ccc(Cl)cc2)c1 (stereo not shown) [7b]    133
2) Cc1cccc(Cl)c1C(=O)NC(CCN(C)C)c1ccc(Cl)cc1.O=C(O)C(=O)O (stereo not shown) [5k, oxalate]    105
3) Cc1cccc(C(=O)OC(CCN(C)C)c2ccc(Cl)cc2)c1C (stereo not shown) [4d, HCl]    94

Reported Emax for human urotensin II receptor (Homo sapiens, UniProt Q9UKP6), given CO[C@@H](C(=O)NC(CCN(C)C)c1ccc(Cl)cc1)c1ccccc1 (single isomer, unassigned; (-)) [(−) 5s, oxalate] ?
165

Queued: Cc1ccc(C(=O)OC(CCN(C)C)c2ccc(Cl)cc2)cc1.Cl (stereo not shown) [4c, HCl]
56

Queued: Cc1c(Cl)cccc1C(=O)OC(CCN(C)C)c1ccc(Cl)cc1.Cl (stereo not shown) [4f, HCl]
118

Queued: COc1cccc(C(=O)OC(CCN(C)C)c2ccc(Cl)cc2)c1C (stereo not shown) [4e, HCl]
120

Queued: CN(C)CCC(NC(=O)c1ccc(N(C)C)cc1)c1ccc(Cl)cc1.O=C(O)C(=O)O (stereo not shown) [5e, oxalate]
145

Queued: CN(C)CCC(OC(=O)c1cc2ccccc2n1C)c1ccc(Cl)cc1 (stereo not shown) [4n, HCl]
104

Queued: CN(C)CCC(NC(=O)Cc1ccccc1)c1ccc(Cl)cc1.O=C(O)C(=O)O (stereo not shown) [5r, oxalate]
154

====

Each record here notes measured Emax.
Molecular target: human urotensin II receptor (Homo sapiens, UniProt Q9UKP6)
Construct: expressed in transfected cells; host or cells: NIH3T3 cells
Experiment: Receptor Selection and Amplification (R-SAT) functional assay, NIH3T3 cells transfected with human urotensin II receptor and β-galactosidase marker
Format: cell-based
Conditions: NIH3T3, Table 3, percent activation normalized to the reference ligand assigned 100%, read-out: Efficacy
Structures can show the parent of a compound that is named as a salt.
Write the answer as a number in %, unit excluded.

These recorded examples may help you get a feel for the data.
1) COc1cccc(C(=O)NC(CCN(C)C)c2ccc(Cl)cc2)c1C.O=C(O)C(=O)O (stereo not drawn) [5g, oxalate]    179
2) COc1cccc(NC(=O)NC(CCN(C)C)c2ccc(Cl)cc2)c1 (stereo not drawn) [8b]    147
3) COc1ccc(C(=O)NC(CCN(C)C)c2ccc(Cl)cc2)cc1.O=C(O)C(=O)O (stereo not drawn) [5d, oxalate]    148
4) CN(C)CCC(NC(=O)c1ccc2ccccc2c1)c1ccc(Cl)cc1 (stereo not drawn) [5n, oxalate]    109
5) Cc1ccccc1NC(=O)NC(CCN(C)C)c1ccc(Cl)cc1 (stereo not drawn) [8a]    166

Which value of Emax has been reported for Cc1ccc(S(=O)(=O)NC(CCN(C)C)c2ccc(Cl)cc2)cc1.O=C(O)C(=O)O (stereo not drawn) [6a, oxalate] in the records?
74

Queued: Cc1cccc(C(=O)NC(CCN(C)C)c2ccc(Cl)cc2)c1C.O=C(O)C(=O)O (stereo not drawn) [5f, oxalate]
159
